These entries and their values trace back to patent US20250325517A1.

# assayDetails: Phase 1 crossover PK study: oral solution fed/fasted vs IV infusion in healthy subjects
# Assay type: in vivo, human
# cond: human, plasma, po, 3.3 mg/kg, oral 3.3 mg/kg fed state, human plasma; read-out: AUC48 Median
measuredAttribute: AUC (ng·h/mL)
Numbers only, in ng·h/mL.

stdin: Requested read-out: AUC. Entry: Cn1cc(C2=C(c3coc4ccc(F)cc34)C(=O)NC2=O)c2cc3c(cc21)OCO3 [elraglusib]
stdout: 4440

* * *

# assayDetails: Phase 1 crossover PK study: oral solution fed/fasted vs IV infusion in healthy subjects
# Assay type: in vivo, human
# cond: human, plasma, iv, 3.3 mg/kg, IV infusion 3.3 mg/kg, human plasma; read-out: Cmax GMean
measuredAttribute: Cmax (ng/mL)
One number for each entry, in ng/mL.

stdin: Requested read-out: Cmax. Entry: "Cn1cc(C2=C(c3coc4ccc(F)cc34)C(=O)NC2=O)c2cc3c(cc21)OCO3"
stdout: 1590
